Provide the recorded GI50 for the entries that follow.
- System: HCT-116
- MEASUREMENT DESCRIPTION: NCI tumour cell line growth inhibition, 48 h
Active and inactive are the calls of the source. No stated cut-off is given here; in the data, active = GI50 up to about 1.1 µM and inactive = higher.

Answer with reported GI50 of O=C(Nc1nc2ccc([N+](=O)[O-])cc2s1)C(=O)C(C(=O)c1ccncc1)C1OC(=O)c2ccccc21 (configuration not stated)
> 100 µM (inactive)

Answer with reported GI50 of C=CCOCCCCC(C(C)=O)C(=O)OC (configuration not stated)
> 100 µM (inactive)

Answer with reported GI50 of `CCCCCCCCCCCCCCCC(=O)OCCOCCOCCOCc1ccccc1`
> 100 µM (inactive)

Answer with reported GI50 of `CCc1c(-c2ccc(OC)cc2)oc(OC)c(C)c1=O`
55.1 µM (inactive)

Answer with reported GI50 of CCP(=O)(CC)C(Cl)(Cl)C(O)C(Cl)(Cl)Cl (configuration not stated)
> 100 µM (inactive)

Answer with reported GI50 of `Nc1nc2[nH]cnc2c(=S)[nH]1`
0.538 µM (active)

Answer with reported GI50 of CC(=O)OC1CCC2(C)C(CCC3C2CC(=O)C2(C)C3CC(N3CC3)C2C(C)=O)C1 (configuration not stated)
20.7 µM (inactive)

Answer with reported GI50 of `O=[N+]([O-])/C(C(Cl)=C(Cl)Cl)=C(/Br)SCc1ccccc1`
1.73 µM (inactive)

Answer with reported GI50 of `COc1ccc(CSCc2cc(OC)c(OC)c(OC)c2)cc1`
> 31.6 µM (inactive)

Answer with reported GI50 of CC1=C2C(O)C(C(C)C(=O)N(C)C)CCC2(C)C=CC1=O (configuration not stated)
> 100 µM (inactive)

Answer with reported GI50 of `CCOC(=O)CC(N1CC1)N1CC1`
> 10 µM (inactive)

Answer with reported GI50 of COc1ccc(NC(C)=O)cc1N1C(=O)/C(=C\c2cc(OC)c(OC)c(OC)c2)SC1c1ccccc1 (configuration not stated)
30 µM (inactive)

###

- Tested on: MOLT-4
- MEASUREMENT DESCRIPTION: NCI tumour cell line growth inhibition, 48 h
The source made the active and inactive calls. No stated cut-off is given here; in the data, active = GI50 up to about 1.1 µM and inactive = higher.
// allowed return values: label 1 for active, label 0 for inactive

Which result was noted for this molecule in the test: `CC(C)N(C(=O)c1ccc(NCc2cc(O)ccc2O)cc1)C(C)C`
label 0

Which result was noted for this molecule in the test: `COc1cccc(/C=C2\S/C(=N/Nc3nc(-c4ccc([N+](=O)[O-])cc4)cs3)NC2=O)c1O`
label 0

Which result was noted for this molecule in the test: `CN(C)CCNC(=O)c1cccc2ncc(-c3ccccc3)nc12`
label 0

Which result was noted for this molecule in the test: `CCN(CC)c1ccc2cc(-c3csc(C)n3)c(=O)oc2c1`
label 0

Which result was noted for this molecule in the test: `C(=C\c1ccc2ccccc2c1Nc1ccccc1)/c1ccccc1`
label 0

Which result was noted for this molecule in the test: `O=C(/C=C/c1ccccc1O)c1cccc2ccccc12`
label 0

Which result was noted for this molecule in the test: `Cc1cc(N(CCOS(C)(=O)=O)CCOS(C)(=O)=O)ccc1/C=N/c1ccc(-c2csc(-c3ccc(Br)cc3)n2)cc1`
label 0

Which result was noted for this molecule in the test: `COC(=O)c1ccc(O)c2nc3c(C=O)c(O)cc(O)c3nc12`
label 1

Which result was noted for this molecule in the test: `N#C/C(N)=C(C#N)/N=C/NCCO`
label 0

Which result was noted for this molecule in the test: `CCC(=O)N1C(=S)SC[C@H]1C(=O)OC`
label 0

Which result was noted for this molecule in the test: `O=[N+]([O-])/C(C(Cl)=C(Cl)Cl)=C(/Br)SCc1ccccc1`
label 1

Which result was noted for this molecule in the test: CC(=O)C1CC=C(C)CC1 (stereo unspecified)
label 0

Which result was noted for this molecule in the test: `Cc1ccc(/N=C2\SC(=NN(C)C)S\C2=N/c2ccc(C)cc2)cc1`
label 0

Which result was noted for this molecule in the test: `O=C1c2cccc3c(Cl)ccc(c23)C(=O)N1CCCN1CCN(CCCN2C(=O)c3cccc4c(Cl)ccc(c34)C2=O)CC1`
label 0

Which result was noted for this molecule in the test: `CCCCOc1c(C(=O)O)cc(Br)cc1C(=O)O`
label 0

Which result was noted for this molecule in the test: `O=C1c2ccccc2C(=O)c2sc(Nc3ccc(Cl)c(Cl)c3)nc21`
label 1

Which result was noted for this molecule in the test: CC(Sc1ccccc1)C(CO)(CO)[N+](=O)[O-] (stereo unspecified)
label 0

Which result was noted for this molecule in the test: O=C1C2C(C(=O)N1c1ccccc1)C1(c3ccccc3)CCC2(C(=O)c2ccccc2)O1 (stereo unspecified)
label 0

Which result was noted for this molecule in the test: Cc1nn(C(=O)c2ccccc2O)c2c1C(c1ccc3ccccc3c1O)SC(=N)N2 (stereo unspecified)
label 0

Which result was noted for this molecule in the test: `C[C@]12CC[C@H]3[C@@H](CC=C4C[C@@H](O)CC[C@@]43C)[C@@H]1C/C(=C\c1ccncc1)[C@@H]2O`
label 0

Which result was noted for this molecule in the test: `O=C(CCn1[nH]c(=O)c(Cl)c(Cl)c1=O)NOCCCc1ccccc1`
label 0

Which result was noted for this molecule in the test: `Cn1cccc(C(=O)c2ccccc2)c1=O`
label 0

Which result was noted for this molecule in the test: `NCCOc1ccc(/C(=C(/Cl)c2ccccc2)c2ccccc2)cc1`
label 0

Which result was noted for this molecule in the test: `CC(C)(C)[Si](C)(C)Oc1cc(CO)cc2c1cc(=N)o[n+]2[O-]`
label 0

Which result was noted for this molecule in the test: CC1C(=O)C(C)C(c2ccco2)N(N=O)C1c1ccco1 (stereo unspecified)
label 0

Which result was noted for this molecule in the test: Cc1cn(C2OC(CO[Si](C)(C)C(C)(C)C)/C(=C\C#N)C2O[Si](C)(C)C(C)(C)C)c(=O)[nH]c1=O (stereo unspecified)
label 0

src = ChEMBL document CHEMBL1201862
